target-system: HLA-A02.01 (Homo sapiens, UniProt P04439, D140Y/D185E/D98H/E176V/E277Q/G131W/G231S/I119V/I121R/I166T/I218V/L300P/L318F/N151K/N90K/P208A/P217A/Q86G/Q94H/R138H/R169H/T345S)
method-notes: Class I MHC peptide binding affinity (displacement of radiolabeled reference peptide)
test-parameters: allele A02.01; read-out: Observed Affinity (IC50; (nM))
Where a SMILES comes first, the peptide text is derived from it.
value-type: IC50 (nM)
Numbers only, in nM.

Sample answers from the record:
CC[C@H](C)[C@H](NC(=O)[C@H](CC(C)C)NC(=O)[C@@H]1CCCN1C(=O)[C@H](Cc1ccccc1)NC(=O)[C@H](CC(C)C)NC(=O)[C@@H](N)CCC(=O)O)C(=O)N[C@@H](Cc1ccccc1)C(=O)N1CCC[C@H]1C(=O)N[C@@H](C)C(=O)O: 13
CC(C)C[C@H](NC(=O)[C@H](Cc1ccccc1)NC(=O)[C@H](CO)NC(=O)[C@H](CC(C)C)NC(=O)[C@H](CS)NC(=O)[C@H](CO)NC(=O)[C@H](Cc1ccccc1)NC(=O)[C@H](CC(C)C)NC(=O)[C@@H](N)CCCCN)C(=O)N[C@@H](CO)C(=O)O (H-KLFSCLSFLS-OH; N-terminus and C-terminus assumed): 0.6
CSCC[C@H](NC(=O)[C@H](CCC(=O)O)NC(=O)[C@H](CC(C)C)NC(=O)[C@H](CC(C)C)NC(=O)[C@H](CC(C)C)NC(=O)[C@H](CC(=O)O)NC(=O)[C@H](CC(N)=O)NC(=O)[C@H](CC(C)C)NC(=O)[C@@H]1CCCN1)C(=O)N[C@@H](CC(C)C)C(=O)O (H-PLNDLLLEML-OH; N-terminus and C-terminus assumed): 12000

For every item in the list below, what is its measured IC50?
1. CC(C)C[C@H](NC(=O)CN)C(=O)N[C@@H](CC(C)C)C(=O)N[C@@H](C)C(=O)N[C@@H](Cc1ccccc1)C(=O)N[C@@H](Cc1c[nH]c2ccccc12)C(=O)N[C@@H](CC(=O)O)C(=O)N[C@@H](CO)C(=O)N[C@@H](CCC(N)=O)C(=O)N[C@H](C(=O)O)C(C)C (H-GLLAFWDSQV-OH; N-terminus and C-terminus assumed)
2. CC(C)C[C@H](NC(=O)[C@H](CC(C)C)NC(=O)[C@H](CC(=O)O)NC(=O)[C@H](CS)NC(=O)[C@H](CC(C)C)NC(=O)[C@@H]1CCCN1C(=O)[C@@H](NC(=O)[C@@H](NC(=O)[C@@H](N)CC(N)=O)C(C)C)C(C)C)C(=O)O (H-NVVPLCDLL-OH; N-terminus and C-terminus assumed)
3. CC[C@H](C)[C@H](NC(=O)[C@@H](NC(=O)[C@H](CC(C)C)NC(=O)[C@@H](N)Cc1ccc(O)cc1)C(C)C)C(=O)N[C@@H](CCC(N)=O)C(=O)N[C@@H](CC(C)C)C(=O)N[C@@H](CCC(N)=O)C(=O)N[C@@H](CC(=O)O)C(=O)N[C@@H](CCCCN)C(=O)N[C@@H](Cc1ccccc1)C(=O)O (H-YLVIQLQDKF-OH)

## Output
[10, 3030, 2060]

* * *

For each of the compounds below, state its IC50.
target-system: HLA-A24.02
method-notes: Class I MHC peptide binding affinity (displacement of radiolabeled reference peptide)
Parameters: species or system human
test-parameters: allele A24.02; read-out: Observed Affinity (IC50; (nM))
Where a SMILES comes first, the peptide text is derived from it.
Note: state the figure and append the unit.

Sample answers from the record:
CC[C@H](C)[C@H](NC(=O)[C@H](Cc1ccc(O)cc1)NC(=O)[C@@H](N)CC(C)C)C(=O)N[C@H](C(=O)N[C@@H](C)C(=O)N[C@@H](Cc1ccccc1)C(=O)N[C@@H](Cc1ccccc1)C(=O)N[C@@H](CC(C)C)C(=O)N[C@@H](CC(C)C)C(=O)O)[C@@H](C)O (H-LYITAFFLL-OH; N-terminus and C-terminus assumed): 0.1 nM
CC(C)C[C@H](NC(=O)[C@H](C)N)C(=O)N[C@@H](CO)C(=O)N[C@@H](C)C(=O)N[C@@H](CO)C(=O)N[C@@H](CC(N)=O)C(=O)N[C@@H](CO)C(=O)N[C@@H](CS)C(=O)N[C@@H](Cc1ccccc1)C(=O)O (H-ALSASNSCF-OH; N-terminus and C-terminus assumed): 16300 nM

Now consider the entry below.
## Input // IC50 lookup, key: CC[C@H](C)[C@H](NC(=O)[C@@H]1CCCN1C(=O)[C@H](CCCNC(=N)N)NC(=O)[C@H](Cc1c[nH]c2ccccc12)NC(=O)[C@H](CC(N)=O)NC(=O)[C@H](CCSC)NC(=O)CNC(=O)CNC(=O)[C@H](CCSC)NC(=O)[C@@H](N)CS)C(=O)O
## Output 4450 nM
